species on record: Homo sapiens; experiment: Selectivity index, ratio of Ki for human recombinant CB1 receptor to Ki for human recombinant CB2 receptor
Kindly return Y if reported Ratio Ki is no lower than 30; return N if it is lower.

Task item: Would you say "CCn1cc(CC(=O)NC23CC4CC(CC(C4)C2)C3)c2cc(-c3ccccc3)ccc21" shows Ratio Ki at minimum 30?
Reply: N

Task item: Would you say "CCCCCn1cc(C(=O)C(=O)NC2CCCCC2)c2cc(-c3ccccc3)ccc21" shows Ratio Ki at minimum 30?
Reply: Y

Task item: Would you say "CCCCCn1cc(C(=O)NC23CC4CC(CC(C4)C2)C3)c2cc(-c3ccccc3)ccc21" shows Ratio Ki at minimum 30?
Reply: Y

Task item: Would you say "O=C(Cc1cn(Cc2ccccc2)c2ccc(-c3ccccc3)cc12)NC12CC3CC(CC(C3)C1)C2" shows Ratio Ki at minimum 30?
Reply: Y

We next turn to a different compound, shown below.
Task item: Would you say "Cn1cc(CC(=O)NC23CC4CC(CC(C4)C2)C3)c2cc(-c3ccccc3)ccc21" shows Ratio Ki at minimum 30?
Reply: N

----------
Record form. Attribute: Ratio Ki. Fill in for each entry.
organism: Homo sapiens; assay: Selectivity index, ratio of Ki for human recombinant CB1 receptor to Ki for human recombinant CB2 receptor
Answers are plain numbers.

Here is how some molecules turned out for Ratio Ki.
Task item: Given "CCCCCn1cc(C(=O)NC23CC4CC(CC(C4)C2)C3)c2cc(-c3ccco3)ccc21" , respond with its Ratio Ki.
Reply: 138

Task item: Given "C=CCn1cc(C(=O)NC23CC4CC(CC(C4)C2)C3)c2cc(-c3ccccc3)ccc21" , respond with its Ratio Ki.
Reply: 26.5

Task item: Given "CCCCCn1cc(CC(=O)NC23CC4CC(CC(C4)C2)C3)c2cc(-c3ccco3)ccc21" , respond with its Ratio Ki.
Reply: 15.1

Task item: Given "C=CCn1cc(C(=O)NC23CC4CC(CC(C4)C2)C3)c2cc(-c3ccco3)ccc21" , respond with its Ratio Ki.
Reply: 488

Task item: Given "C=CCn1cc(CC(=O)NC23CC4CC(CC(C4)C2)C3)c2cc(-c3ccco3)ccc21" , respond with its Ratio Ki.
Reply: 11.2

Shift focus to the following entry.
Task item: Given "C=CCCn1cc(CC(=O)NC23CC4CC(CC(C4)C2)C3)c2cc(-c3ccccc3)ccc21" , respond with its Ratio Ki.
Reply: 103

----------
species on record: Homo sapiens; test: Selectivity index, ratio of Ki for human recombinant CB1 receptor to Ki for human recombinant CB2 receptor
Record form. Attribute: Ratio Ki. Fill in for each entry.
Answers are plain numbers.

Task item: Given "CCCn1cc(CC(=O)NC23CC4CC(CC(C4)C2)C3)c2cc(-c3ccccc3)ccc21" , respond with its Ratio Ki.
Reply: 128

Task item: Given "C=CCn1cc(C(=O)C(=O)NC23CC4CC(CC(C4)C2)C3)c2cc(-c3ccccc3)ccc21" , respond with its Ratio Ki.
Reply: 154

Task item: Given "C=CCn1cc(CC(=O)NC23CC4CC(CC(C4)C2)C3)c2cc(-c3ccccc3)ccc21" , respond with its Ratio Ki.
Reply: 10.6

Task item: Given "CCCCCn1cc(CC(=O)NC23CC4CC(CC(C4)C2)C3)c2cc(Br)ccc21" , respond with its Ratio Ki.
Reply: 32.4

Task item: Given "CCCCCn1cc(C(=O)C(=O)NC23CC4CC(CC(C4)C2)C3)c2cc(-c3ccco3)ccc21" , respond with its Ratio Ki.
Reply: 932

Task item: Given "CCCCCn1cc(C(=O)NC23CC4CC(CC(C4)C2)C3)c2cc(-c3cccs3)ccc21" , respond with its Ratio Ki.
Reply: 568

Field: Ratio Ki. Fill in for each record below.
1. CCCCCn1cc(C(=O)NC23CC4CC(CC(C4)C2)C3)c2ccc(-c3ccccc3)cc21
2. C=CCn1cc(C(=O)C(=O)NC23CC4CC(CC(C4)C2)C3)c2cc(-c3ccco3)ccc21

Reply:
1. 0.6
2. 351

Task item: Given "CCCCCn1cc(CC(=O)NC23CC4CC(CC(C4)C2)C3)c2cc(-c3ccccc3)ccc21" , respond with its Ratio Ki.
Reply: 34

----------
species: Homo sapiens; test: Selectivity index, ratio of Ki for human recombinant CB1 receptor to Ki for human recombinant CB2 receptor
MEASURED PROPERTY: Ratio Ki

Here is how some molecules turned out for Ratio Ki.
Task item: Given "C=CCn1cc(C(=O)NC23CC4CC(CC(C4)C2)C3)c2cc(-c3ccc(O)cc3)ccc21" , respond with its Ratio Ki.
Reply: > 450

Task item: Given "O=C(Cc1c[nH]c2ccc(-c3ccccc3)cc12)NC12CC3CC(CC(C3)C1)C2" , respond with its Ratio Ki.
Reply: > 141

Task item: Given "C=CCn1cc(CC(=O)NC2CCCCC2)c2cc(OCc3cccc(OC)c3)ccc21" , respond with its Ratio Ki.
Reply: > 25

Task item: Given "C=CCn1cc(CC(=O)NC2CCCCCC2)c2cc(-c3ccco3)ccc21" , respond with its Ratio Ki.
Reply: > 26

Shift focus to the following entry.
Task item: Given "CCCCCn1cc(C(=O)C(=O)NC23CC4CC(CC(C4)C2)C3)c2cc(-c3ccccc3)ccc21" , respond with its Ratio Ki.
Reply: > 787

Recorded values, source ChEMBL document CHEMBL2086369.
